Reference for the values: ChEMBL document CHEMBL1201862

molecular target: Cytochrome P450 2C19 (Homo sapiens); test: Cytochrome panel assay with activity outcomes. Panel member name: p450-cyp2c19 Compounds with AC50 equal or less than 10 uM are considered active; type: functional; conditions: read-out: AC50
Sequence (P33261 whole entry): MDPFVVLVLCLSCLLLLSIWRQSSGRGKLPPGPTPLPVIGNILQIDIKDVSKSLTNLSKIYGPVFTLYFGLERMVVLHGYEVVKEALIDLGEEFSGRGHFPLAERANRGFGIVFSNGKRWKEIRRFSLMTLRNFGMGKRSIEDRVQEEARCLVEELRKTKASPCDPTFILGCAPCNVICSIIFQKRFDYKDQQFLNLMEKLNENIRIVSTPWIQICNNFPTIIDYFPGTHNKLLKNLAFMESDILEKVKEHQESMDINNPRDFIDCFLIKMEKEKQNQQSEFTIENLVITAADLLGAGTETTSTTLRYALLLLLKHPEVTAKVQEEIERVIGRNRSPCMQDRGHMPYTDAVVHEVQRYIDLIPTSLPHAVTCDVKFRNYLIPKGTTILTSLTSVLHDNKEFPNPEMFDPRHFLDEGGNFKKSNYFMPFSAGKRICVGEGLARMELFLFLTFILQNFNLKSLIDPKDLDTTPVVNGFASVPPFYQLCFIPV

[
  {
    "MOLECULE": "COc1ccccc1CNc1ncnc2ccc(-c3c(C)noc3C)cc12",
    "TESTED ON": "Cytochrome P450 2C19 (Homo sapiens)",
    "AC50": "31.6 µM (inconclusive)"
  },
  {
    "MOLECULE": "COC(=O)[C@@]1(Cc2ccc(OC)cc2)[C@H]2c3cc(C(=O)N4CCCC4)n(CCN4CCOCC4)c3C[C@H]2CN1C(=O)c1ccccc1",
    "TESTED ON": "Cytochrome P450 2C19 (Homo sapiens)",
    "AC50": "31.6 µM (inconclusive)"
  },
  {
    "MOLECULE": "COc1ccc(C(C(=O)Nc2ccc(F)cc2)N(C(=O)Cn2nnc3ccccc32)C2CC2)cc1 (stereo not given)",
    "TESTED ON": "Cytochrome P450 2C19 (Homo sapiens)",
    "AC50": "10 µM (inconclusive)"
  },
  {
    "MOLECULE": "O=C(CCCCCn1c(=S)[nH]c2cc3c(cc2c1=O)OCO3)N1CCN(C2CCCCC2)CC1",
    "TESTED ON": "Cytochrome P450 2C19 (Homo sapiens)",
    "AC50": "7.08 µM (inconclusive)"
  },
  {
    "MOLECULE": "COC(=O)CSC(C(=O)Nc1ccc(C)c(C)c1)c1ccccc1 (stereo not given)",
    "TESTED ON": "Cytochrome P450 2C19 (Homo sapiens)",
    "AC50": "0.398 µM (inconclusive)"
  },
  {
    "MOLECULE": "CCOC(=O)C(C)n1cnc2c(oc3ccccc32)c1=O (stereo not given)",
    "TESTED ON": "Cytochrome P450 2C19 (Homo sapiens)",
    "AC50": "31.6 µM (inconclusive)"
  },
  {
    "MOLECULE": "CC[C@H](C(=O)c1cccs1)C(O)(C(F)(F)F)C(F)(F)F",
    "TESTED ON": "Cytochrome P450 2C19 (Homo sapiens)",
    "AC50": "2 µM (inconclusive)"
  },
  {
    "MOLECULE": "O=C(c1ccccc1)N(Cc1ccco1)C1CCS(=O)(=O)C1 (stereo not given)",
    "TESTED ON": "Cytochrome P450 2C19 (Homo sapiens)",
    "AC50": "31.6 µM (inconclusive)"
  },
  {
    "MOLECULE": "CCOC(=O)N/N=C(/C)c1ccc([N+](=O)[O-])o1",
    "TESTED ON": "Cytochrome P450 2C19 (Homo sapiens)",
    "AC50": "25.1 µM (inconclusive)"
  },
  {
    "MOLECULE": "Cn1c(S)nnc1CNS(=O)(=O)c1ccc(F)cc1",
    "TESTED ON": "Cytochrome P450 2C19 (Homo sapiens)",
    "AC50": "39.8 µM (inconclusive)"
  }
]

###

molecular target: Replicative DNA helicase DnaB (Mycobacterium tuberculosis); test: DnaB intein splicing inhibitors, dose response, biochemical, cell-free fluorescence (AID 449749); type: functional
Sequence (P9WMR3 1-399, added parts left off): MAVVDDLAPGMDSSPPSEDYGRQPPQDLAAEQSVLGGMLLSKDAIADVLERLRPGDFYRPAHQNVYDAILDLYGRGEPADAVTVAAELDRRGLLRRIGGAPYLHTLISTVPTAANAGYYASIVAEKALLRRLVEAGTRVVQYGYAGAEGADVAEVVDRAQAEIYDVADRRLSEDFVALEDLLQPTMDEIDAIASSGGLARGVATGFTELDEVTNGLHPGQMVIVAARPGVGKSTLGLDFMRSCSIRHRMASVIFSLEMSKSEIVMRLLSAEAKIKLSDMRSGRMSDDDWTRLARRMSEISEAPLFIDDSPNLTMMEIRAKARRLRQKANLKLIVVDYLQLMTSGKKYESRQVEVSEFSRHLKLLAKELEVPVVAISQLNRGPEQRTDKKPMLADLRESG
The source made the active and inactive calls.
AC50 by entry:
ENDPOINT NAME: AC50

[
  {
    "COMPOUND": "CCCCCOP(=O)(OCCCCC)C1(NS(=O)(=O)c2ccccc2)C=CC(=O)c2ccccc21 (stereo not drawn)",
    "ENDPOINT NAME": "AC50",
    "ENDPOINT RESULT": "2.96 µM (active)"
  },
  {
    "COMPOUND": "Cc1[nH]n(-c2ccccc2)c(=O)c1C(C[N+](=O)[O-])c1ccc(Br)cc1 (stereo not drawn)",
    "ENDPOINT NAME": "AC50",
    "ENDPOINT RESULT": "7.55 µM (active)"
  },
  {
    "COMPOUND": "O=C(CN1CCN(S(=O)(=O)c2ccc(Cl)cc2)CC1)Nc1ccc2c(c1)OCO2",
    "ENDPOINT NAME": "AC50",
    "ENDPOINT RESULT": "55.9 µM (active)"
  }
]
